Here, molecules appear alongside pIC50 reported for NAD-dependent protein deacetylase sirtuin-1 (Homo sapiens) in the literature.
pIC50: −log10 of the molar value.
Please note: 1.0 applies when pIC50 is 5 or greater, and 0.0 applies otherwise.

>  <molecule>
COc1ccc(OC)c(C(=O)c2coc3ccc(O)cc23)c1

>  <discrete.label>
0.0

$$$$
>  <molecule>
O=C(c1ccc(OCc2ccccc2)cc1)c1coc2cc(Br)c(O)c(Br)c12

>  <discrete.label>
0.0

$$$$
>  <molecule>
O=C(c1ccccc1)c1coc2c1cc(O)c1ccccc12

>  <discrete.label>
0.0

$$$$

Data request: Quick check: does CCOC(=O)CC(=O)NCCCC[C@H](NC(=O)OCc1ccccc1)C(=O)Nc1ccccc1 have pIC50 greater than or equal to 5?
Data returned: 1.0

Data request: Quick check: does CCCCCNC(=S)NCCCC[C@H](NC(=O)OCc1ccccc1)C(=O)Nc1cccc(O)c1 have pIC50 greater than or equal to 5?
Data returned: 0.0

Data request: Quick check: does O=C(c1ccccc1)c1coc2ccc(O)c(CN3CCOCC3)c12 have pIC50 greater than or equal to 5?
Data returned: 0.0

Data request: Quick check: does COc1ccc(NC(=O)N2CC(C(N)=O)Oc3ccccc32)cc1 (stereo not given) have pIC50 greater than or equal to 5?
Data returned: 0.0

Data request: Quick check: does CCCCCCCCNC(=S)NCCCC[C@H](NC(=O)OCc1ccccc1)C(=O)Nc1cccc(O)c1 have pIC50 greater than or equal to 5?
Data returned: 1.0

Data request: Quick check: does NC(=O)C1CN(Cc2ccccc2O)c2ccccc2O1 (stereo not given) have pIC50 greater than or equal to 5?
Data returned: 1.0

Data request: Quick check: does O=C(NNC(=S)Nc1ccc(C(F)(F)F)cc1)c1nc(-c2cccc3ccccc23)no1 have pIC50 greater than or equal to 5?
Data returned: 0.0

Data request: Quick check: does O=C(/C=C/c1ccc(OCc2ccc(F)cc2)cc1)NC1(C(=O)NCCc2c[nH]c3ccc(F)cc23)CCNCC1 have pIC50 greater than or equal to 5?
Data returned: 0.0

Data request: Quick check: does NC(=O)C1CN(C(=O)c2ccccc2)c2ccccc2O1 (stereo not given) have pIC50 greater than or equal to 5?
Data returned: 0.0

Data request: Quick check: does CNC(=O)[C@H](C)NC(=O)[C@H](CCCCNC(=O)C=C(C)C)NC(=O)[C@H](C)NC(C)=O have pIC50 greater than or equal to 5?
Data returned: 1.0

Data request: Quick check: does O=C(c1cccc(O)c1)c1coc2ccc(O)cc12 have pIC50 greater than or equal to 5?
Data returned: 0.0

Data request: Quick check: does COC(=O)[C@H](C)NC(=O)[C@H](CCCCNC(=O)C=C(C)C)NC(=O)[C@H](C)NC(C)=O have pIC50 greater than or equal to 5?
Data returned: 0.0

Data request: Quick check: does CNC(=S)NCCCC[C@H](NC(=O)[C@H](CCCCNC(C)=O)NC(C)=O)C(=O)N[C@@H](CCCCNC(C)=O)C(N)=O have pIC50 greater than or equal to 5?
Data returned: 1.0

Data request: Quick check: does Cc1ccc(S(=O)(=O)N2CC(C(N)=O)Oc3ccccc32)cc1 (stereo not given) have pIC50 greater than or equal to 5?
Data returned: 0.0
